Attribution: the supplement of paper PMC6757056

Please go through the items and note down their FACS-Seq fitted mean (log10).
B1: library; a variant is named by its letters at N, in order (parent)
chain: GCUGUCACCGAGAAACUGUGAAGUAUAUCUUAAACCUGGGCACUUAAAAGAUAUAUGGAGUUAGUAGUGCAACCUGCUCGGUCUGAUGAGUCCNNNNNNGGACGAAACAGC

# Variants of: B1
# Measurement Description: FACS-Seq fitted mean relative fluorescence mCherry/BFP with ligand (log10 relative fluorescence); HEK293T; ligand: cyclic di-GMP (c-di-GMP-II aptamer); ligand concentration (+) FACS-Seq: 1 mM; higher = higher reporter protein expression
# Assay Context: ligand present: yes
Numbers only.

Some entries whose results are on file:
GCUGUCACCGAGAAACUGUGAAGUAUAUCUUAAACCUGGGCACUUAAAAGAUAUAUGGAGUUAGUAGUGCAACCUGCUCGGUCUGAUGAGUCCCGAUAUGGACGAAACAGC | -0.183
GCUGUCACCGAGAAACUGUGAAGUAUAUCUUAAACCUGGGCACUUAAAAGAUAUAUGGAGUUAGUAGUGCAACCUGCUCGGUCUGAUGAGUCCGUCAAUGGACGAAACAGC | 0.152
GCUGUCACCGAGAAACUGUGAAGUAUAUCUUAAACCUGGGCACUUAAAAGAUAUAUGGAGUUAGUAGUGCAACCUGCUCGGUCUGAUGAGUCCUGUCCUGGACGAAACAGC | 0.158
GCUGUCACCGAGAAACUGUGAAGUAUAUCUUAAACCUGGGCACUUAAAAGAUAUAUGGAGUUAGUAGUGCAACCUGCUCGGUCUGAUGAGUCCAAAGGGGGACGAAACAGC | -0.28
GCUGUCACCGAGAAACUGUGAAGUAUAUCUUAAACCUGGGCACUUAAAAGAUAUAUGGAGUUAGUAGUGCAACCUGCUCGGUCUGAUGAGUCCCGCCAAGGACGAAACAGC | 0.0764

Quick request: FACS-Seq fitted mean (log10) for each listed item, please.
1. GCUGUCACCGAGAAACUGUGAAGUAUAUCUUAAACCUGGGCACUUAAAAGAUAUAUGGAGUUAGUAGUGCAACCUGCUCGGUCUGAUGAGUCCAGAAUGGGACGAAACAGC
2. GCUGUCACCGAGAAACUGUGAAGUAUAUCUUAAACCUGGGCACUUAAAAGAUAUAUGGAGUUAGUAGUGCAACCUGCUCGGUCUGAUGAGUCCCCAGGCGGACGAAACAGC
3. GCUGUCACCGAGAAACUGUGAAGUAUAUCUUAAACCUGGGCACUUAAAAGAUAUAUGGAGUUAGUAGUGCAACCUGCUCGGUCUGAUGAGUCCAGGAAAGGACGAAACAGC
4. GCUGUCACCGAGAAACUGUGAAGUAUAUCUUAAACCUGGGCACUUAAAAGAUAUAUGGAGUUAGUAGUGCAACCUGCUCGGUCUGAUGAGUCCAUCCUGGGACGAAACAGC

1: -0.126; 2: -0.924; 3: -0.185; 4: -0.151

Hey, can you go through the list below and give me FACS-Seq fitted mean (log10) for every item?
1. GCUGUCACCGAGAAACUGUGAAGUAUAUCUUAAACCUGGGCACUUAAAAGAUAUAUGGAGUUAGUAGUGCAACCUGCUCGGUCUGAUGAGUCCUGAUAGGGACGAAACAGC
2. GCUGUCACCGAGAAACUGUGAAGUAUAUCUUAAACCUGGGCACUUAAAAGAUAUAUGGAGUUAGUAGUGCAACCUGCUCGGUCUGAUGAGUCCAAACACGGACGAAACAGC
3. GCUGUCACCGAGAAACUGUGAAGUAUAUCUUAAACCUGGGCACUUAAAAGAUAUAUGGAGUUAGUAGUGCAACCUGCUCGGUCUGAUGAGUCCAGGAUAGGACGAAACAGC
4. GCUGUCACCGAGAAACUGUGAAGUAUAUCUUAAACCUGGGCACUUAAAAGAUAUAUGGAGUUAGUAGUGCAACCUGCUCGGUCUGAUGAGUCCCAGUAAGGACGAAACAGC
5. GCUGUCACCGAGAAACUGUGAAGUAUAUCUUAAACCUGGGCACUUAAAAGAUAUAUGGAGUUAGUAGUGCAACCUGCUCGGUCUGAUGAGUCCACUUAGGGACGAAACAGC
6. GCUGUCACCGAGAAACUGUGAAGUAUAUCUUAAACCUGGGCACUUAAAAGAUAUAUGGAGUUAGUAGUGCAACCUGCUCGGUCUGAUGAGUCCACUAUAGGACGAAACAGC
7. GCUGUCACCGAGAAACUGUGAAGUAUAUCUUAAACCUGGGCACUUAAAAGAUAUAUGGAGUUAGUAGUGCAACCUGCUCGGUCUGAUGAGUCCUGAUGUGGACGAAACAGC

[0.191, -0.124, -0.199, -0.22, 0.0154, 0.067, 0.187]

# map each variant to its FACS-Seq fitted mean (log10)
1. GCUGUCACCGAGAAACUGUGAAGUAUAUCUUAAACCUGGGCACUUAAAAGAUAUAUGGAGUUAGUAGUGCAACCUGCUCGGUCUGAUGAGUCCAAACAAGGACGAAACAGC
2. GCUGUCACCGAGAAACUGUGAAGUAUAUCUUAAACCUGGGCACUUAAAAGAUAUAUGGAGUUAGUAGUGCAACCUGCUCGGUCUGAUGAGUCCUCGAGUGGACGAAACAGC
3. GCUGUCACCGAGAAACUGUGAAGUAUAUCUUAAACCUGGGCACUUAAAAGAUAUAUGGAGUUAGUAGUGCAACCUGCUCGGUCUGAUGAGUCCCGAAUAGGACGAAACAGC

[-0.77, -0.0571, -0.209]
